# TEST DESCRIPTION: protease stability score; higher = more stable; yeast display proteolysis, trypsin and chymotrypsin;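 also: relative to predicted unfolded state with 0 unfolded-like and 1 meaning tenfold more protease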
Decide by protease stability score: equal to or exceeding 1 means satisfied, less means not satisfied.

>  <ORDERED RESIDUES>
DEEEQLSKIALRHFVESLETGDEHLLHRLIDPHARDIVDGVEIHGRDRMVENLIHMIERFKNVRLEIKDIKVINGRVHVEGRLEVDGKKLTMNLHFQKFDGRWWVRSVERH

>  <CLASSIFICATION>
satisfied

$$$$
>  <ORDERED RESIDUES>
DELDHDIERNLRLWLEALYTGDFEFLLRLVDPNVRMHINGVNDHGWKFAEFLIRRADHSEMEIRIRHVHEVNGVLRMDGEVKFDIRQGDKSREKHIEVHMVLMKVNGQWFVKSFEFK

>  <CLASSIFICATION>
satisfied

$$$$
>  <ORDERED RESIDUES>
SELEEFARKLMHIYSFAFLTGDWRLHEHMLDPHVRQEQGDKELHGMEDLERLMKRIDHVKHVEMLIEHLEVQGDKVRAHGKWRLIGTVNGQDVDVTIRAHFNIEKFDGVWVVREVRLL

>  <CLASSIFICATION>
satisfied

$$$$
>  <ORDERED RESIDUES>
DKQHEDIRRFMEEFLNAVTTGDEDVLSRLHDPHARFRLHQGEKHDEKHGRESWLKWMSEIRIHHIEIEHIDVQGDYTLMIVHSDGTIDGVRMEWESRIILYVYNGKLKEVEVRIH

>  <CLASSIFICATION>
not satisfied

$$$$
>  <ORDERED RESIDUES>
DEREELDEHWFRLQFQAMETGDENLVRDNLDPHVKVVVGDKEFVGRHYAIRLFHDLGVDHLVKKSEDRQGEKVIVHGRLDIGDKRHEIVLIIRKIDGKWVVHEIIIR

>  <CLASSIFICATION>
satisfied

$$$$
>  <ORDERED RESIDUES>
DETHRDMEEALRLFVRLLETGNEEILSKLVDPHVKIDFENHQHIGMEDWMKFMHHIRLDSMRIDDFKLIGDKARSDTTLDGNVNGRHFKFKTWIVAQKVDGRWLEHSVEYR

>  <CLASSIFICATION>
not satisfied

$$$$
>  <ORDERED RESIDUES>
SEDEEQAERFARELIEVLRTGNEELLTHLLDPNTMLRVNGVEHHGREAYLHYTREMRYHHIDIEHFDVQGDKLYLHNRMDGQVDGRRVDVRIRIQVEKVNGRWKLRQERHQ

>  <CLASSIFICATION>
not satisfied

$$$$
>  <ORDERED RESIDUES>
SEEEWLTEYIWRVFIRLLLTGDERAINKLLDPHVQVDVGDKRIHGRELLSHIWRTEAEEIRHHIEVKRFHSQGEKVHHDVRITIIINGQVHRIEAHIHLFIYDGRITHIEVEFR

>  <CLASSIFICATION>
satisfied

$$$$
>  <ORDERED RESIDUES>
NHDEEKTHEFKEKWMKDVTTGNEEEISKLMDPNAKIVVNGREYHGREKMWETIHRLLKILGISRVEVRIESVHIYDGRIEIHMRVHAENHESHIIVHVEKIDGRWSSKHLRID

>  <CLASSIFICATION>
not satisfied

$$$$
>  <ORDERED RESIDUES>
SEEEQRQHEFMILWLEYFRTGNEEELLELIDPNVLLVMDINGRNELNHGRELWHEFMNRFWEKIKNATFIVHDKRVINGRIHMDGRLDINGREYTVHLHIEVINGVTKRFEIRIR

>  <CLASSIFICATION>
satisfied

$$$$
>  <ORDERED RESIDUES>
DEDEELARKFIKKTSEARETGNEDDFMNLADPNVRQDINGVPIIGREEVSRIISHLRIRMEIRIRDVRIVGEKVELDVHIRMDIDFDGQRIHDKRDVHIILVKIDGKWLLHSVNHR

>  <CLASSIFICATION>
not satisfied

$$$$

====

Here, each record is paired with measured protease stability score data.
# TEST DESCRIPTION: protease stability score; higher = more stable; yeast display proteolysis, trypsin and chymotrypsin;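 also: relative to predicted unfolded state with 0 unfolded-like and 1 meaning tenfold more protease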

>  <ORDERED RESIDUES>
GDSEKDAERAIDIFLDTVRTGDERLIHELLDPTTILQVGDKQFHGREEADKWWHELLRKLGHTNIEMEVRDMKVQGDKVHLDTELRFNGRSTRIHVVIIKVNGRWLIEHIEIK

>  <protease stability score>
1.23

$$$$
>  <ORDERED RESIDUES>
SERDEEAKHLSEEIIRLWRTGDWKTFVRMLDPNDRMEVDGQSFHGMEDVIKFLLDFWKHLRIEDIRFRDLKYQGDKASSHTEVDVRIGDKQTRLHTEVDVLVVNGKLKSHRIKIE

>  <protease stability score>
1.08

$$$$
>  <ORDERED RESIDUES>
DEWDEMLHEWAERIIKHFITGDWESFVKMADPHVRLHVDGKDFIGRERMEEAFKELLERLGVDHVELHHVRVINGQNDVDEDVKVGNKRLKVIHHLVVYNGRIKSIEIETR

>  <protease stability score>
1.39

$$$$
>  <ORDERED RESIDUES>
DEDFDIVKHIFDVYIDAILTGDFRTLERNIDPDAKLHFNGREYHGWEIVVKFMLEIRVHDVQYKTMHIYDGRVELHGRNDGVIDGQKTETDTKIIMVKIDGRWHVRHIRVG

>  <protease stability score>
1.33

$$$$
>  <ORDERED RESIDUES>
SEEEKHWEDLVEHLHQIWLTGDEDTLRHRLDPNMRMDIDGKELHGRESIIEEIRRLGVDHVETKRKHSQGDKAHFDLIIRIDGKEHKMEIVIVVVNGKLKEVVLRRK

>  <protease stability score>
1.1

$$$$
>  <ORDERED RESIDUES>
SEEDEKSHKLWEEMLEIFMTGDWKRESELADPEARRVFIVDGVNHVFHGRETITEALLRWHKEMRVHDFKLHDRRYQGEKFHVDGIVDGEYNGKKRIYEVEIIIIVVDGRVHSLEFEHK

>  <protease stability score>
0.296

$$$$

====

# TEST DESCRIPTION: protease stability score; higher = more stable; yeast display proteolysis, trypsin and chymotrypsin;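 also: relative to predicted unfolded state with 0 unfolded-like and 1 meaning tenfold more protease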
Here, each record is paired with measured protease stability score data.

>  <ORDERED RESIDUES>
DEEHNLSEEAMRHFFETVRTGDEELIYRLLDPNARVQINGKEHHGREDVWEFLWRNYMRADHVEVKVHHVEVQGEKVIIDLRLHVTINGKDLEIRLVLIIHKYNGRWHITELRIL

>  <protease stability score>
0.555

$$$$
>  <ORDERED RESIDUES>
DETKEQSDEFIRIWVKARRTGDEHKLRRLIDPNVRVLINGKDLIGMDRALEIIEMFRKEFGIDHMHFTVRHVDIFNGVAISDFKVEINFNGREHEFTTHLVNLKIDGVWHTHSMEFH

>  <protease stability score>
0.546

$$$$
>  <ORDERED RESIDUES>
SDLERHISEVFKDIIEMEETGDEEELDKLADPNVRIDIDGVELIGRESLRRWVESVVDQIKGIKKHIVIRHLRVFNGRADSDGELRIHINGKTIVRKVRIHITVVNGRLKEMQFRTE

>  <protease stability score>
1.19

$$$$
>  <ORDERED RESIDUES>
SEDEELSKKAVEDILRNLETGDWETISRMADPHVRVDFNGVDIHGREVMSKMFEDELRDLGVTKVDVRLHDVDSQGDKVIVHHRVHVNGRTEEVEVHATKFNGKWVIKKMTVRVK

>  <protease stability score>
1.19

$$$$
>  <ORDERED RESIDUES>
DEDKEFMERLARMFWHSILTGDEHRISNLADPNMKLEVDGQRFHGREEMERASKERWERLGVDHIHIEDLRVVGDKVTIHTHVDINGKEWRVDIEVKIINGKIKEIRIERHEL

>  <protease stability score>
1.09

$$$$

====

# TEST DESCRIPTION: protease stability score; higher = more stable; yeast display proteolysis, trypsin and chymotrypsin;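 also: relative to predicted unfolded state with 0 unfolded-like and 1 meaning tenfold more protease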
MEASURED ENDPOINT: protease stability score

>  <ORDERED RESIDUES>
SDEDRLNYEIAKYLLDSLRTGDWHTFRRMADPHVKIRTVINGQELRMHGMEDLMERWKLLGFDHTRVHVEHIEIQGDKAHVRGTVKININGQEHTYETDLDVQIVNGRVESINFNWL

>  <MEASURED ENDPOINT>
protease stability score

>  <MEASUREMENT>
1.14

$$$$
>  <ORDERED RESIDUES>
SDIDNEADNLLRELSEVHQTGDWKTLLELADPNVQLIVNGRDLHGWEHLARRFTELRIHHVDHRIKHIHSYDGRVDLDGRLHYDGEINGRRDILHHEVSVHTKKIDGRWIISNIQIN

>  <MEASURED ENDPOINT>
protease stability score

>  <MEASUREMENT>
-0.21

$$$$
>  <ORDERED RESIDUES>
SEDEEVMKRAHELSARVMKTGDEETFRELADPDVRRNVNGVVRHGMENVIHLLRILFDEIRPRHFELTHMEVQGDKVRMEIRNDVRIGDKEVQLRVILIASKVNGRWHLQEVHVE

>  <MEASURED ENDPOINT>
protease stability score

>  <MEASUREMENT>
-0.496

$$$$
